# ASSAY TEXT: Selectivity ratio IC50 for non-senescent human WI-38 cells to IC50 for ionizing radiation induced human WI-38 senescent cells
# Type: functional
PARAMETER: Ratio IC50
Respond using a number only.

Exercise: Ratio IC50 for COc1cc(/C=C/C(=O)N2CCC=C(I)C2=O)cc(OC)c1OC ?
Solution: 7.1

Exercise: Ratio IC50 for COc1cc(/C=C/C(=O)N2CCC(=O)/C(=C/c3ccc(F)cc3)C2)cc(OC)c1OC ?
Solution: 3.9

Exercise: Ratio IC50 for CN(C)CCOc1ccc(/C=C/C(=O)N2CCC=C(Br)C2=O)cc1 ?
Solution: 1.5

Exercise: Ratio IC50 for COc1cc(/C=C/C(=O)N2OCC=CC2=O)cc(OC)c1OC ?
Solution: 6

###

# ASSAY TEXT: Senolytic activity in non-senescent human WI-38 cells by PI staining based flow cytometry analysis
# Type: toxicity, cell-based
# DETAILS: non-senescent WI-38 cells
PARAMETER: pIC50
# log scale: pIC50 equals minus log10 of the concentration in mol/L

Exercise: pIC50 for O=C(C#Cc1ccccc1)N1CCC=CC1=O ?
Solution: 5.82

Exercise: pIC50 for COc1cc(C#CC(=O)N2CCC=CC2=O)cc(OC)c1OC ?
Solution: 4.86

Exercise: pIC50 for COc1cc(/C=C/C(=O)N2CCCC=C(Br)C2=O)cc(OC)c1OC ?
Solution: 5.44

Exercise: pIC50 for COc1ccc(/C=C/C(=O)N2CCCC=C(Br)C2=O)cc1 ?
Solution: 5.24

Exercise: pIC50 for COc1cc(/C=C/C(=O)N2CCC=C(I)C2=O)cc(OC)c1OC ?
Solution: 4.79

Exercise: pIC50 for CN(C)C/C=C/C(=O)N1CCC=CC1=O ?
Solution: 5.01

Exercise: pIC50 for COc1ccc(/C=C/C(=O)N2CCCC=C(Cl)C2=O)cc1 ?
Solution: 5.82

Exercise: pIC50 for CN(C)CCOc1ccc(/C=C/C(=O)N2CCCC=C(Br)C2=O)cc1 ?
Solution: 5.47

Exercise: pIC50 for COc1cc(/C=C/C(=O)N2CCC(=O)/C(=C/c3ccc(F)cc3)C2)cc(OC)c1OC ?
Solution: 4.27

###

# ASSAY TEXT: Senolytic activity in non-senescent human WI-38 cells by PI staining based flow cytometry analysis
# Type: toxicity, cell-based
# DETAILS: non-senescent WI-38 cells
pIC50: −log10 of the molar value.
Respond with T for pIC50 values of 5 and above, F for values below.

Exercise: Quick check, pIC50 >= 5? CN(C)CCOc1ccc(/C=C/C(=O)N2CCC=C(Br)C2=O)cc1
Solution: T

Exercise: Quick check, pIC50 >= 5? CN(C)CCOc1ccc(/C=C/C(=O)N2CCCC=C(Cl)C2=O)cc1
Solution: T

Exercise: Quick check, pIC50 >= 5? COc1cc(/C=C/C(=O)N2CCC=C(Cl)C2=O)cc(OC)c1OC
Solution: T

Exercise: Quick check, pIC50 >= 5? COc1cc(/C=C/C(=O)N2CCC(N(C)C)CC2=O)cc(OC)c1OC (stereo unspecified)
Solution: F

Exercise: Quick check, pIC50 >= 5? COc1ccc(/C=C/C(=O)N2CCC=C(Cl)C2=O)cc1
Solution: T

Exercise: Quick check, pIC50 >= 5? COc1cc(/C=C/C(=O)N2CCCC=C(Cl)C2=O)cc(OC)c1OC
Solution: T

Exercise: Quick check, pIC50 >= 5? CN(C)CCOc1ccc(/C=C/C(=O)N2CCC=C(Cl)C2=O)cc1
Solution: T

Exercise: Quick check, pIC50 >= 5? COc1cc(/C=C/C(=O)N2CCC(=O)/C(=C/c3ccc(F)cc3F)C2)cc(OC)c1OC
Solution: F

Exercise: Quick check, pIC50 >= 5? CN(C)CCOc1ccc(/C=C/C(=O)N2CCC=CC2=O)cc1
Solution: F

Exercise: Quick check, pIC50 >= 5? COc1cc(/C=C/C(=O)N2CCC=C(Br)C2=O)cc(OC)c1OC
Solution: T

###

Please respond with reported Ratio IC50 for every item in the list.
# ASSAY TEXT: Selectivity ratio IC50 for non-senescent human WI-38 cells to IC50 for ionizing radiation induced human WI-38 senescent cells
# Type: functional
Respond using a number only.

Exercise: Ratio IC50 for COc1cc(/C=C/C(=O)N2CCC=CC2=O)cc(OC)c1OC [PIPLARTINE] ?
Solution: 2.5

Exercise: Ratio IC50 for COc1cc(/C=C/C(=O)N2C=CC=CCC2=O)cc(OC)c1OC ?
Solution: 1.3

Exercise: Ratio IC50 for COc1ccc(/C=C/C(=O)N2CCCC=C(Cl)C2=O)cc1 ?
Solution: 9.3

Exercise: Ratio IC50 for COc1cc(C#CC(=O)N2CCC=CC2=O)cc(OC)c1OC ?
Solution: 3.2

Exercise: Ratio IC50 for CN(C)CCOc1ccc(/C=C/C(=O)N2CCCC=C(Br)C2=O)cc1 ?
Solution: 1.2

Exercise: Ratio IC50 for COc1cc(/C=C/C(=O)N2CCCC=C(Cl)C2=O)cc(OC)c1OC ?
Solution: 3.7

Exercise: Ratio IC50 for CN(C)CCOc1ccc(/C=C/C(=O)N2CCC=CC2=O)cc1 ?
Solution: 13.3

Exercise: Ratio IC50 for COc1cc(/C=C/C(=O)N2CCC=C(Br)C2=O)cc(OC)c1OC ?
Solution: 10.4

Exercise: Ratio IC50 for CN(C)C/C=C/C(=O)N1CCC=CC1=O ?
Solution: 3.5

Exercise: Ratio IC50 for COc1cc(/C=C/C(=O)N2CCC(=O)/C(=C/c3ccc(F)cc3F)C2)cc(OC)c1OC ?
Solution: 4.2

###

# Test system: WI-38
# ASSAY TEXT: Senolytic activity in ionizing radiation induced human WI-38 senescent cells by PI staining based flow cytometry analysis
# Assay type: functional, cell-based
Please respond with reported IC50 for every item in the list.
Respond with the bare value in nM.

Exercise: IC50 for CN(C)C/C=C/C(=O)N1CCC=CC1=O ?
Solution: 2800

Exercise: IC50 for COc1cc(/C=C/C(=O)N2CC=CCC2=O)cc(OC)c1OC ?
Solution: 27500

Exercise: IC50 for CN(C)CCOc1ccc(/C=C/C(=O)N2CCCC=C(Br)C2=O)cc1 ?
Solution: 2900

Exercise: IC50 for COc1ccc(/C=C/C(=O)N2CCC=C(Br)C2=O)cc1 ?
Solution: 630

Exercise: IC50 for COc1cc(/C=C/C(=O)N2CCC(=O)/C(=C/c3ccc(F)cc3F)C2)cc(OC)c1OC ?
Solution: 14700

Exercise: IC50 for COc1cc(/C=C/C(=O)N2CCC(=O)/C(=C/c3ccc(F)cc3)C2)cc(OC)c1OC ?
Solution: 14000

Exercise: IC50 for CN(C)CCOc1ccc(/C=C/C(=O)N2CCC=CC2=O)cc1 ?
Solution: 1500

Exercise: IC50 for COc1cc(/C=C/C(=O)N2OCC=CC2=O)cc(OC)c1OC ?
Solution: 8100

Exercise: IC50 for COc1cc(/C=C/C(=O)N2CCCC=C(Cl)C2=O)cc(OC)c1OC ?
Solution: 450

Exercise: IC50 for CN(C)CCOc1ccc(/C=C/C(=O)N2CCC=C(Br)C2=O)cc1 ?
Solution: 3200

Exercise: IC50 for COc1cc(/C=C/C(=O)N2CC(O)C=CC2=O)cc(OC)c1OC (configuration not stated) ?
Solution: 7400

Exercise: IC50 for CN(C)CCOc1ccc(/C=C/C(=O)N2CCCC=C(Cl)C2=O)cc1 ?
Solution: 2400

Exercise: IC50 for O=C(C#Cc1ccccc1)N1CCC=CC1=O ?
Solution: 930

Exercise: IC50 for COc1ccc(/C=C/C(=O)N2CCCC=C(Cl)C2=O)cc1 ?
Solution: 160

Exercise: IC50 for COc1cc(/C=C/C(=O)N2CCC(N(C)C)CC2=O)cc(OC)c1OC (configuration not stated) ?
Solution: 10200

Exercise: IC50 for COc1cc(/C=C/C(=O)N2CCC=C(Cl)C2=O)cc(OC)c1OC ?
Solution: 650

Exercise: IC50 for COc1ccc(/C=C/C(=O)N2CCC=C(Cl)C2=O)cc1 ?
Solution: 510

Exercise: IC50 for COc1cc(/C=C/C(=O)N2CCC=C(Br)C2=O)cc(OC)c1OC ?
Solution: 520

Exercise: IC50 for COc1cc(/C=C/C(=O)N2C=CC=CCC2=O)cc(OC)c1OC ?
Solution: 21100

Exercise: IC50 for COc1cc(/C=C/C(=O)N2CCC=C(I)C2=O)cc(OC)c1OC ?
Solution: 2300

Exercise: IC50 for COc1cc(/C=C/C(=O)N2CCC=C(F)C2=O)cc(OC)c1OC ?
Solution: 15300

Exercise: IC50 for COc1cc(/C=C/C(=O)N2CCCC=C(Br)C2=O)cc(OC)c1OC ?
Solution: 560

Exercise: IC50 for CN(C)CCOc1ccc(/C=C/C(=O)N2CCC=C(Cl)C2=O)cc1 ?
Solution: 2900

Exercise: IC50 for COc1ccc(/C=C/C(=O)N2CCCC=C(Br)C2=O)cc1 ?
Solution: 1300

Exercise: IC50 for COc1cc(C#CC(=O)N2CCC=CC2=O)cc(OC)c1OC ?
Solution: 4400
